- TARGET_OR_SYSTEM: T1, Anti-CD28 Fab (SEQ ID NOs: 202, 203)
- T1 construct: biotinylated and captured on neutravidin coated plates in the phage ELISA
- T1 sequence (VH, as listed by the source, chain 1 of 2): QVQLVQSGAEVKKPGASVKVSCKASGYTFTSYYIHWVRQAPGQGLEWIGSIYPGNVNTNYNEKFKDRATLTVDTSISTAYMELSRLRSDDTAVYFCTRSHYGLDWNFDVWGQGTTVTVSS
- T1 sequence (VL, as listed by the source, chain 2 of 2): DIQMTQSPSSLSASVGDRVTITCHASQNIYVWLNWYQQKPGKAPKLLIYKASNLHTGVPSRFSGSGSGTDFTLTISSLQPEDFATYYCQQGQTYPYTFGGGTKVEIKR
- TEST_NAME: phage ELISA, Fab on plate;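 also: crude clonal phage supernatants added to wells pretreated with blocking buffer with or without CD28 antigen, then bound phage read out via HRP-linked anti-M13 antibody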
VALUE_KIND: Anti-CD28 Fab (SEQ ID NOs: 202, 203) signal
No unit in the answer, only the number.

Sample records with Anti-CD28 Fab (SEQ ID NOs: 202, 203) signal:
BINDER: YCDGHLPDYMAKCL [Phage-712]
RESULT_NUMBER: 1.17
--
BINDER: YCEGHSAEYIGKCL [Phage-738]
RESULT_NUMBER: 1.08
--
BINDER: YCDGHSPEYMQKCL [Phage-617]
RESULT_NUMBER: 1.4
--
BINDER: YCEGHLPQYMSKCL [Phage-719]
RESULT_NUMBER: 1.15
--
BINDER: YCDGHAMEYMEKCL [Phage-733]
RESULT_NUMBER: 1.11
--
BINDER: YCDGHLDEYMLKCL [Phage-603]
RESULT_NUMBER: 1.43
--
BINDER: YCEGHAAAYMGKCL [Phage-722]
RESULT_NUMBER: 1.14

# evaluate next
Query: Name the reported Anti-CD28 Fab (SEQ ID NOs: 202, 203) signal value associated with the binder YCAGHSAEYMSKCL [Phage-612]
Result: 1.41
